All values here come from ChEMBL document CHEMBL4270531.

target: UniProt:P55201; experiment: Binding affinity to human partial length BRPF1 (E627 to G740 residues) expressed in Escherichia coli BL21 after 1 hr by BROMOscan assay
Sequence (P55201 whole entry, the tested form may be a part): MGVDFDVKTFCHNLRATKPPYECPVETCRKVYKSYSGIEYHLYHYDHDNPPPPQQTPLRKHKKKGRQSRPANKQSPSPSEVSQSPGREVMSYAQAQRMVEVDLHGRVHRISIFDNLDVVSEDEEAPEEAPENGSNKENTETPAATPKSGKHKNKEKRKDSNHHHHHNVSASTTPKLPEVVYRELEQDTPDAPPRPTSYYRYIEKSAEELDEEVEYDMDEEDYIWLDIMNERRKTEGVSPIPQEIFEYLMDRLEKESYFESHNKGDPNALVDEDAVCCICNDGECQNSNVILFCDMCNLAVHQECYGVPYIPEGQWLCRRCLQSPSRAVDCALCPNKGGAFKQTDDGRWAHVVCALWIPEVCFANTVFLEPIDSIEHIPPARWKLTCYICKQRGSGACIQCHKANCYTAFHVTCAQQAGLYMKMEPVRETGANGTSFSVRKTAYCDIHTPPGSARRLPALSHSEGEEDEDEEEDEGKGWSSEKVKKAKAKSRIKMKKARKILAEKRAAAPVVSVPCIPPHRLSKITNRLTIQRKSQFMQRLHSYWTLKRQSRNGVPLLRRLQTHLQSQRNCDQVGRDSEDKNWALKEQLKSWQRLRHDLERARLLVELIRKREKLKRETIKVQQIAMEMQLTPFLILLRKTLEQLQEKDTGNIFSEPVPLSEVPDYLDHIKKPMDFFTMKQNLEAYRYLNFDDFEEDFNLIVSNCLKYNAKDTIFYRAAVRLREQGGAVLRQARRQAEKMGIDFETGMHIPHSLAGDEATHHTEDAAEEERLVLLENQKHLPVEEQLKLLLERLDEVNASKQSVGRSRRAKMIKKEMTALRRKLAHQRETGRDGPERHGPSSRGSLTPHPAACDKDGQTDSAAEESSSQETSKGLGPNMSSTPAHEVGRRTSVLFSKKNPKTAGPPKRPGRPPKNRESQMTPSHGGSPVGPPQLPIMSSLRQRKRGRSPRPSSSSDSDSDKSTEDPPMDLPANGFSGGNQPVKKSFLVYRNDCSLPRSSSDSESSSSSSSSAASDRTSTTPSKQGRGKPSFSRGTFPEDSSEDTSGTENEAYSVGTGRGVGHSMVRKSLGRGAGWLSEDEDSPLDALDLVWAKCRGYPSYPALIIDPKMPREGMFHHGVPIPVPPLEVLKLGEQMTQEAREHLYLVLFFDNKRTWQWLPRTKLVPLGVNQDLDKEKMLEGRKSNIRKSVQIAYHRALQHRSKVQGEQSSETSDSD
Parameter: Kd. Scope: all listed entries.
Could you kindly put the unit after your number?

Sample CCn1c(=O)c(C)nc2cc(C(=O)NC(C)c3cnn(C)c3C)ccc21 (stereo not drawn) — what was its Kd? 20 µM

Sample `CCn1c(=O)c(C)nc2cc(C(=O)NCc3c(C)nn(Cc4ccccc4)c3C)ccc21` — what was its Kd? 16 µM

Turning now to a further compound:
Sample `CCn1c(=O)c(=O)[nH]c2cc(C(=O)NCc3ccc(Cn4cccn4)cc3)ccc21` — what was its Kd? 18 µM
